# System: MCF7;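 further: secreted proteins added to cultured cells, EdU pulse at the end, nuclei found by Hoechst imaging, EdU status from nuclear versus surrounding ring intensity ratio, PBS as neutral control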
# experimentalProtocol: percentage of EdU-negative (G0-arrested) nuclei per well, 72 h; higher = more G0 arrest
# conditionsUsed: protein concentration 0.225 µM; reference: sequence is the full UniProt precursor, the tested protein was the secreted form or ectodomain
resultType: percentage of EdU-negative (%)

sequenceString	testSystem	uom	recordedValue
MGLWGQSVPTASSARAGRYPGARTASGTRPWLLDPKILKFVVFIVAVLLPVRVDSATIPRQDEVPQQTVAPQQQRRSLKEEECPAGSHRSEYTGACNPCTEGVDYTIASNNLPSCLLCTVCKSGQTNKSSCTTTRDTVCQCEKGSFQDKNSPEMCRTCRTGCPRGMVKVSNCTPRSDIKCKNESAASSTGKTPAAEETVTTILGMLASPYHYLIIIVVLVIILAVVVVGFSCRKKFISYLKGICSGGGGGPERVHRVLFRRRSCPSRVPGAEDNARNETLSNRYLQPTQVSEQEIQGQELAELTGVTVELPEEPQRLLEQAEAEGCQRRRLLVPVNDADSADISTLLDASATLEEGHAKETIQDQLVGSEKLFYEEDEAGSATSCL [Q9UBN6]	MCF7	%	24.3
MLTRLVLSAHLSSTTSPPWTHAAISWELDNVLMPSPRIWPQVTPTGRSASVRSEGNTSSLWNFSAGQDVHAIVTRTCESVLSSAVYTHGCGCVRSATNITCQSSGQQRQAARQEEENSICKAHDSREGRLGYPLSAHQPGSGGPN [Q8TAV5]	MCF7	%	26
MCVTYHNGTGYCKCPEGFLGEYCQHRDPCEKNRCQNGGTCVAQAMLGKATCRCASGFTGEDCQYSTSHPCFVSRPCLNGGTCHMLSRDTYECTCQVGFTGKECQWTDACLSHPCANGSTCTTVANQFSCKCLTGFTGQKCETDVNECDIPGHCQHGGTCLNLPGSYQCQCLQGFTGQYCDSLYVPCAPSPCVNGGTCRQTGDFTFECNCLPETVRRGTELWERDREVWNGKEHDEN [Q7Z3S9]	MCF7	%	24.5
